# Assay Name: soluble fraction after stress (log2 fold change); higher = more stays soluble; pooled small domains, quantitative proteomics
# Test Conditions: stress: pH 4
Please respond with reported soluble fraction (log2) for every item in the list.
Respond numerically, and do not add a unit to the figure.

Given the sequence `HMEHETTQLELNAPGQRLDAALALALPDTSRAQIQQWIKQGLVTDQAGTALLQASLKLKSPLNVVLQRPI` , what is its reported soluble fraction (log2)?
0.0662

Likewise for `HMKSTPMYATAIVNIRSKAGTDSEILGKLNPSEEISVISSENGWSKVSYNGKEAYISSNYLSNAKP` ?
0.22

Likewise for `HMEDVLVTQIIQLKHVDANDMKTLFTPLLSRGSSQLLAYPQSNVLIITDTRSNIKKITEILDIIDKS` ?
-0.838

Likewise for `HMEKPTRNKLVEIIIQNKNVTTEQMANLLNISRRAVAKHIKKLQEEGIIRRIGPDFGGHWEIVK` ?
0.225

Likewise for `HMTMNYFIIENNQQVGPLTLEQLVARNITSDTLVWKEGMEDWQPAWKVDELHTVLDQIRANAEQ` ?
-1.19

Likewise for `HMAQLSDDEQAIIDTITRRGDATMSELIASVNVSTPRLMSMLIDMEFRSLITALPGGRYQIRLIN` ?
-0.464

Likewise for `HMGKHYLLKDDNGTITIYKILEDGTQEVYEKTEISTTYLPQTDNIGIKQGIRVNGDEALNELIENF` ?
-0.821

Likewise for `HMDYKSNLQEMVQTTKKSVTYELVKEEGPAHDRTFTMNVIVDGIVLGTGTAKSKKEAEQEAAHQALEKKA` ?
-0.0453

Likewise for `HMVLQHHTATKALSYHTSASASAAVKGSFARGDSVQVVQGGSQTADGAKWHKVKVGSSYYYAAAEHLTP` ?
-0.616

Likewise for `HMATYNEVLKRLIEERKRLGLSQQEMARLVHITQSNYSKVEKGLHRLSYEELKYLSKANVDIFYILT` ?
0.0845

Likewise for `HMRLREETRKVDKTGLIQVDGRHYRVPDEYSQKDVQILMDDNSIMVYRKGDFVIELDKETSVYMPH` ?
-1.02

Likewise for `HMFIMQTVALGSEGPDVRALQSILNRIGYNAGTVDGIFGSRTRQAVIAFQRNNGLAADGVAGPATWG` ?
-0.0509

Likewise for `HMNYGDVIEGQIMHVDRDELLVDIGSKSEGIIPAREFSTLTDEERAALSVGDHVLVFVVQAENQEGQAV` ?
0.0111

Likewise for `HMKAPLTFVIEGKEYEAFDQYKTGAELKQLAGIPLDTELFLSISKPYQDELIENEKQVNLARPETEYFFVK` ?
-0.494

Likewise for `HMEFENIEQRKQYWSDLYRELKAGQDAYAKELKKGTEGYTQDELDILKEFTDEAKKQMEAAGVEATDEFAS` ?
-0.176

Likewise for `HMTASSYMGMQLGRLEELLKKEVLSLSEKTELKDLISDFDKIPEVVSPKIIGRYLQLKNQHFAKINA` ?
-0.2

Likewise for `HMSTALTPLTTREREVLALMAEGLTNSGIAARLVLTDRTVETHVSRILHKLGLGETTTNEHRRVLAVLRYL` ?
-0.716

Likewise for `HMGNIIITPNPASDFIKIISNSPIIKFGFYDIYGNTINKKFNDNSINISDLPVGMYLINLNERYFKLLK` ?
0.021

Likewise for `HMKSLPQKLLAYLESQGLTRDEAGEFVKQGLKITSNDVDQIQLLLANTEVIDIKLQEFIAQK` ?
-0.549

Likewise for `HMISAADLQTYLKGMDYPAGREDLVAHAQRNNAPESVITILQGFSDRTYRSAAEVSEEFGRE` ?
-0.371

Likewise for `HMTKMTPNRQLVLSVLQSSGKPLSAYELLDRLREQGTQWQPPTAYRALDYLVEQGLAHYLQSIQKYV` ?
-0.317

Likewise for `HMHELKIEKVAEAPNGAMRLLLSDGSEWVLGVKSWNRLNLSLEKILDVNVLRALEKESQYHLLRTKALEL` ?
0.171

Likewise for `HMAVVAPLAGSVARVLVADGDEIEAGQVLLVLEAMKMETEITAPKAGKVGAILVGKGDSVQGGQGLR` ?
-0.249

Likewise for `HMKEAITVIGGKNNITFDASAQAEIGIYSMDGVQIQKKTISDNERIDLPAGMYVVTVKTGQANVSKVVVV` ?
-0.145

Likewise for `HMYNNDEIEKIQTMYNAIYQLNDIEKALIMLFLEDKSYKEIAEIMGISEGNARIKMMRTKDKLKNLISKN` ?
-0.608

Likewise for `HMTSFDVMLKSAGANKLAVVKLVKELTGLGLKEAKDIVDAAPSKVKEGVSKEEAEELQKQLTGAGAEVEL` ?
0.309

Likewise for `HMIPEKEISYMMPDGFMPKELKIIHITESGRKQIYSAAHKPLDLVNVKAPFVPNTKVQIYINDVPIEELKI` ?
-0.739

Likewise for `HMNNQIFGLKFRQLRKQQHITLAKAAAGITSRQSLGNWETGKGELAFEKVLLLLKKINVQPIDFLESSIS` ?
0.264

Likewise for `HMGPTLTDEEEVVLNLLEKNHPVLLSELKENAGLSNKKWDKAIKGLSAHKLAKVTKTDDGLFVHLS` ?
-0.167

Likewise for `HMGAVVSPMPGVILDIKVKEGDSVSEGQTVIILEAMKMENEIVSEFTGTVSAIRVKKGDTVDTDAVLVEI` ?
-1.04

Likewise for `HMAAYRLIPLGNSNKDFETYQEAIQYMRDKLDESSKAFEEGKQNWVYSGRVYGVPWSDGRTTFTVDLVPKV` ?
0.0755

Likewise for `HMWKSEAGKKIIESLAQKYNKSNAQIILRWHIQMGYIVIPGARSENHIKENINIFDFKLTNEEINNILKLN` ?
-0.124
